- test.name: protein stability index of a GFP-peptide fusion (GPS, HEK-293T) (PSI 1-6); higher = more stable;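 further: 24-mer peptide tiles fused after GFP, lentivirally expressed, FACS-sorted into six equal bins by GFP/DsRed ratio, decoded by Illumina sequencing, PSI is the read-weighted mean bin number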
- condition: treatment: MLN4924 1 uM, 8 h; c terminus: a fixed tail appended
measured.parameter: protein stability index
Lab note: write the figure by itself, no unit.

Q) Which value of protein stability index has been reported for EVDVQEAGAGWWVGAAYASLRRRG [TRIM14] in the records?
A) 3.38

Q) # protein stability index lookup, item DRARRFEEALRKNTEEQLEIALAP [MTUS2]
A) 4.85

Q) # lookup: protein stability index of PSSFDPSMLLQRFSVAPHETQTQR [RNF180]
A) 3.95

Q) Quick one: protein stability index for ENLSVPVIGALLRFNQAILVSRHD [LPCAT4] ?
A) 2.5

Q) Recorded protein stability index for MYDLPKKEDALLYQSKGYNDDYYE [EMD] , please?
A) 4.25

Q) Item under review: GLLLGSHGLLGSPVRAAASSPVTT [CDC25B] . Reported protein stability index?
A) 3.26

Q) What value of protein stability index has been recorded for this entry: NTVKVQVLYPDGQAQMIHPKPADF [INTS4]
A) 3.08

Q) Name the recorded protein stability index for AREVKLLLLGAGESGKSTIVKQMK [GNAI1] .
A) 2.62

Q) Which protein stability index is listed for YSECIVTVGGEERVSRKPTAAMRC [GAN] ?
A) 3.85

Q) # lookup: protein stability index of EPPPPLHNNNNNCEENEQSLPPPA [BNIP3L]
A) 5.68

Q) If you can, please state the reported protein stability index value of PADFSLGSLPGPGQTSGAREPPQA [VENTX] .
A) 5.16

Q) Quick check: protein stability index of RSWAMLFASGGFQVKLYDIEQQQI [CRYL1] ?
A) 2.28

Q) # query: protein stability index of entry ADFGSATFDHEHHTTIVATRHYRP [CLK3]
A) 3.92

###

- test.name: protein stability index of a GFP-peptide fusion (GPS, HEK-293T) (PSI 1-6); higher = more stable
- condition: treatment: MLN4924 1 uM, 8 h; c terminus: a fixed tail appended
measured.parameter: protein stability index
Write no unit; give the number alone.

Q) Can you look up the measured protein stability index of TSGGLLSEAPNEKLFFVDTGSKEK [NOP53] for me?
A) 4.84

Q) Param item = AEVSVISEADPQALLQAMKDLDGM [FBF1] ; retrieve measured protein stability index.
A) 4.36

Q) Quick one: protein stability index of SSGPGNSQNSFLVQEVMEEEWNAL [RPAIN] ?
A) 4.92

Q) Data request, read-out protein stability index, for CPEGLEELLSAPPPDLGAQRRHGW [SPSB2]
A) 3.83

Q) What protein stability index value was documented for this sequence, REAFPSWSSRSPQERSRVLNQVAD [ALDH8A1] ?
A) 4.23

Q) Looking for the measured protein stability index of TLIPTCKFYTWLWGVFYYFVSALG [SCD] , can you help?
A) 2.13

Q) What does the data say about its protein stability index? Entry: IAVAWIYGTKKFMQELTEMLGFRP [SLC6A17]
A) 2.1

Q) Given MSLHGASGGHERSRDRRRSSDRSR [BTBD10] , state its recorded protein stability index.
A) 5.19

Q) Entry GSSASTSPAPLDTCPSSSTASSIS [DYRK1B] : reported protein stability index = ?
A) 5.3

Q) If you can, please state the reported protein stability index value of SWVLSMLYGFLLTFGFITMTPQLF [CLPTM1] .
A) 3.03

Q) For DKTCSKTKNKSKHALRKKQLKRQK [FAM9B] , what is its reported protein stability index?
A) 4.59

Q) Which measured protein stability index value corresponds to VAETECRYALQLQQIQGLISSIEA [KRT13] ?
A) 2.63

Q) Looking for the measured protein stability index of GSKSQRYSGAYGASVSDEELKRRV [CHCHD3] , can you help?
A) 4.86

Q) Tell me the measured protein stability index of LLEQGAQVNRRSAKGNTALHDCAE [FEM1A] , please.
A) 4.9

Q) Please report the recorded protein stability index for GRLILSTIRLRPRQVLCEKCKSTL [PWWP2B] .
A) 2.56

Q) Can you share its protein stability index? I mean this sequence: EDYSAEYIIQQGGWGTVFSLESEE [BCL2L13]
A) 3.96

Q) Suppose we examine the sequence FATPEREMRISESAASGARFPLDS [PCDHGC5] ; what protein stability index value has been reported?
A) 4.57

Q) Reported protein stability index, sequence PNALIASLALGDLIYVVIDLPINV [EDNRA] : ____
A) 3.03

Q) Need protein stability index, item KALFTCPFNGDCRITKDNRRHCQA [VDR]
A) 3.21

Q) Name the recorded protein stability index for ELIRNIYNSFHKLRDRAERIASRA [SNX8] .
A) 2.17

Q) Suppose we examine the sequence AKARDLYKGRQLQGCPGAKKHEFL [SMOC2] ; what protein stability index value has been reported?
A) 3.2

Q) Value lookup for protein stability index; key = VTGEKEEPSRSASEADSEAGELRK [PPEF2]
A) 5.5

Q) Given the entry RLEINVLKKIKEKDKENKFLCVLM [CLK3] , report its measured protein stability index.
A) 2.1

Q) # lookup: protein stability index of EAAGSFTSSLAQPGAYYPYERTLG [IRX6]
A) 3.28

Q) If you can, please state the reported protein stability index value of LLCPETYVWVPIEQCLPSLENSKY [ATE1] .
A) 2.03

Q) Quick check: protein stability index of QYVYIAVMDYLPISSTSTKRTYWP [PLD5] ?
A) 2.74

Q) Look up protein stability index: EAIKNEMNVMLKSSPVDLVTATDQ [IMPA1]
A) 4.67
